# TARGET_DESC: human α-thrombin (human), P00734
# ASSAY_INFO: microplate thermal shift assay; Kd at 298 K of Hirugen for thrombin with 50 µM 3dp-4660 present
MEASURED_ENDPOINT: pKd
On this scale, pKd is minus log10 of a concentration expressed in M (mol/L).

Task: What measured pKd goes with DGDFEEIPEEYL (modifications not checked) [Hirugen (hirudin 53-64), P01050 53-64] ?
Result: 7.27

Entry source: patent US6849458
